Where do these numbers come from? They come from the supplement of paper PMC8728848.

Molecular target: Fuc(a1-2)[Gal(a1-3)]Gal(b1-3)GalNAc(b1-3)Gal(a1-4)Gal(b1-4)Glc
Test: glycan array binding signal (z-score within array); higher = stronger binding
Conditions: glycan notation: IUPAC condensed, linker removed
This is one part of a sample in which the strongest signals are shown more often than they occur.
The threshold is inclusive: glycan array binding signal (z-score) of exactly -0.2 counts as Condition met; values below receive Condition not met.

Would you please look over these solved cases?
{"columns": ["binder", "discrete label"],
 "data": [
  ["Langerin K299A/K313A (Homo sapiens), Q9UJ71 (protein) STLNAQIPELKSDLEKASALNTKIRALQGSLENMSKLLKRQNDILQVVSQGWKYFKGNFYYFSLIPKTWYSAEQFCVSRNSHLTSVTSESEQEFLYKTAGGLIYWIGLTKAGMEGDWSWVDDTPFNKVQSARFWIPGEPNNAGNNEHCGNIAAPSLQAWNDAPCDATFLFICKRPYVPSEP", "Condition met"],
  ["XL-35 (Xenopus laevis) (protein) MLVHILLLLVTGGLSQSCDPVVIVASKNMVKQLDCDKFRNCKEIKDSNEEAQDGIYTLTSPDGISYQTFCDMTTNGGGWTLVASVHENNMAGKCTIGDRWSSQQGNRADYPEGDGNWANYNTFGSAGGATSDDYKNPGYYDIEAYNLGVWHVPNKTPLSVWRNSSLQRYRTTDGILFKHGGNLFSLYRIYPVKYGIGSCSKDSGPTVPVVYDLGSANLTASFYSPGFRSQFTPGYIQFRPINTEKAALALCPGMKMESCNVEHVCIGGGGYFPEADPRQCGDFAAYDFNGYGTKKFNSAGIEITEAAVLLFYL", "Condition not met"],
  ["Erv41-EDTA (Saccharomyces cerevisiae), Q04651 (protein) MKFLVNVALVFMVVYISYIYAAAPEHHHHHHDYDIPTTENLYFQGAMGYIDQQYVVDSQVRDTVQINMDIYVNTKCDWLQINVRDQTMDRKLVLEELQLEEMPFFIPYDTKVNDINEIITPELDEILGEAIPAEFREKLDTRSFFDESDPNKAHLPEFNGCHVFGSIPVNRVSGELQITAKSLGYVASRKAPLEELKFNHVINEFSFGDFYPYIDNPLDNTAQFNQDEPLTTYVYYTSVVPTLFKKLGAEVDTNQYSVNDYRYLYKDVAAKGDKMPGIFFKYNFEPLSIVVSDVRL", "Condition not met"]
]}

Can SP15308B-bot-339-22-339 (Bacteroides ovatus) (protein) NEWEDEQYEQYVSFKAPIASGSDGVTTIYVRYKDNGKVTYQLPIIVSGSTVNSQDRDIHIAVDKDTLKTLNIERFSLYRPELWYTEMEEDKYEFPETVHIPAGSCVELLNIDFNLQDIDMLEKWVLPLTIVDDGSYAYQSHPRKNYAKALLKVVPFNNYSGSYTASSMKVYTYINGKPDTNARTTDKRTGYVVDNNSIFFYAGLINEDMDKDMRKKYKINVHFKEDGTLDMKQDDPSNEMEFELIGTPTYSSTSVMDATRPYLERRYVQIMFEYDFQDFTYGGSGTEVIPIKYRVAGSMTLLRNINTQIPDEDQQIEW be said to have glycan array binding signal (z-score) at or above -0.2?
Condition met

Does BDCA-2 (Homo sapiens), Q8WTT0 (protein) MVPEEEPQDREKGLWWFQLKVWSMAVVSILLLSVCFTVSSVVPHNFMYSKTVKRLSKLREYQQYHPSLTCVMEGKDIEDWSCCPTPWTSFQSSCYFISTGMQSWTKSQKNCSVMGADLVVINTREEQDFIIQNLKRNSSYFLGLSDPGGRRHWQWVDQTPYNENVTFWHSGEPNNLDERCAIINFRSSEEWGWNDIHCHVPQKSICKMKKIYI have a reported glycan array binding signal (z-score) of at least -0.2?
Condition met
